# Assay: Intravenous delivery of CR845 to canines (composite IV data from five studies, reference for bioavailability)
# Test Conditions: dog, in vivo, average dose 0.029±0.029 mg/kg, ten kilogram dogs, thirty-six canines
Experimental Endpoint: Cmax (ng/mL)
# value in ng/mL; strip the unit string

Give reported Cmax value for CC(C)C[C@@H](NC(=O)[C@@H](Cc1ccccc1)NC(=O)[C@H](N)Cc1ccccc1)C(=O)N[C@H](CCCCN)C(=O)N1CCC(N)(C(=O)O)CC1
163
